conditions_used: 353.15 K; 1000 kPa; Liquid
Numbers after ± are expanded uncertainties.
# mass density per entry
Please answer using the number first and the unit second.

Known results for compounds:
1. CCCCCCCCn1cc[n+](C)c1.O=S(=O)([N-]S(=O)(=O)C(F)(F)F)C(F)(F)F :: 1270 ± 3 kg/m3
2. CCCCCCCn1cc[n+](C)c1.O=S(=O)([N-]S(=O)(=O)C(F)(F)F)C(F)(F)F :: 1296 ± 3 kg/m3
3. CCn1cc[n+](C)c1.F[B-](F)(F)F [1-ethyl-3-methylimidazolium tetrafluoroborate] :: 1257 ± 2 kg/m3

q: // mass density lookup, key: `CCn1cc[n+](C)c1.O=S(=O)([N-]S(=O)(=O)C(F)(F)F)C(F)(F)F`
a: 1462 ± 4 kg/m3

----------
conditions_used: 313.15 K; 25000 kPa; Liquid
Measured mass density, listed per entry.
Give a bare numeral; the unit kg/m3 is implied.

The examples below pair each entry with its known result.
1) CCn1cc[n+](C)c1.O=S(=O)([N-]S(=O)(=O)C(F)(F)F)C(F)(F)F :: 1522
2) CCn1cc[n+](C)c1.F[B-](F)(F)F [1-ethyl-3-methylimidazolium tetrafluoroborate] :: 1299
3) CCCCCCCCn1cc[n+](C)c1.O=S(=O)([N-]S(=O)(=O)C(F)(F)F)C(F)(F)F :: 1324

Note: attention shifts to another entry.
q: Given `CCCCCCCn1cc[n+](C)c1.O=S(=O)([N-]S(=O)(=O)C(F)(F)F)C(F)(F)F` , state its recorded mass density.
a: 1351

----------
Reported mass density values follow for various molecules
conditions_used: 353.15 K; 2000 kPa; Liquid
Numbers after ± are expanded uncertainties.

1. CCn1cc[n+](C)c1.O=S(=O)([N-]S(=O)(=O)C(F)(F)F)C(F)(F)F :: 1463 ± 4 kg/m3

q: Looking for the measured mass density of `CCCCCCCn1cc[n+](C)c1.O=S(=O)([N-]S(=O)(=O)C(F)(F)F)C(F)(F)F` , can you help?
a: 1296 ± 3 kg/m3

q: Given the molecule `CCCCCCCCn1cc[n+](C)c1.O=S(=O)([N-]S(=O)(=O)C(F)(F)F)C(F)(F)F` , what is its reported mass density?
a: 1270 ± 3 kg/m3

q: Quick check: mass density of CCn1cc[n+](C)c1.F[B-](F)(F)F [1-ethyl-3-methylimidazolium tetrafluoroborate] ?
a: 1258 ± 2 kg/m3

----------
# mass density per record follows
conditions_used: 323.15 K; 4000 kPa; Liquid
± gives the expanded uncertainty stated by the source.
Could you write the number and then its unit?

1) CCCCCCCn1cc[n+](C)c1.O=S(=O)([N-]S(=O)(=O)C(F)(F)F)C(F)(F)F :: 1325 ± 3 kg/m3
2) CCn1cc[n+](C)c1.O=S(=O)([N-]S(=O)(=O)C(F)(F)F)C(F)(F)F :: 1496 ± 4 kg/m3
3) CCCCCCCCn1cc[n+](C)c1.O=S(=O)([N-]S(=O)(=O)C(F)(F)F)C(F)(F)F :: 1299 ± 3 kg/m3

q: Form field: reported mass density of CCn1cc[n+](C)c1.F[B-](F)(F)F [1-ethyl-3-methylimidazolium tetrafluoroborate]
a: 1282 ± 3 kg/m3

----------
conditions_used: 343.15 K; 15000 kPa; Liquid
± gives the expanded uncertainty stated by the source.
property_name: mass density

q: Fill blank: measured mass density of the compound CCn1cc[n+](C)c1.F[B-](F)(F)F [1-ethyl-3-methylimidazolium tetrafluoroborate] is ____.
a: 1272 ± 3 kg/m3

q: Which measured mass density value corresponds to `CCCCCCCn1cc[n+](C)c1.O=S(=O)([N-]S(=O)(=O)C(F)(F)F)C(F)(F)F` ?
a: 1316 ± 4 kg/m3

q: # query: mass density of entry `CCCCCCCCn1cc[n+](C)c1.O=S(=O)([N-]S(=O)(=O)C(F)(F)F)C(F)(F)F`
a: 1290 ± 4 kg/m3

q: Param item = `CCn1cc[n+](C)c1.O=S(=O)([N-]S(=O)(=O)C(F)(F)F)C(F)(F)F` ; retrieve measured mass density.
a: 1484 ± 6 kg/m3

----------
conditions_used: 303.15 K; 3000 kPa; Liquid
property_name: mass density (kg/m3)
The figure you give is taken to be in kg/m3; do not add the unit.

Examples from the recorded data:
1) CCCCCCCn1cc[n+](C)c1.O=S(=O)([N-]S(=O)(=O)C(F)(F)F)C(F)(F)F :: 1344
2) CCn1cc[n+](C)c1.O=S(=O)([N-]S(=O)(=O)C(F)(F)F)C(F)(F)F :: 1517
3) CCCCCCCCn1cc[n+](C)c1.O=S(=O)([N-]S(=O)(=O)C(F)(F)F)C(F)(F)F :: 1317

Now look at this one.
q: What measured mass density goes with CCn1cc[n+](C)c1.F[B-](F)(F)F [1-ethyl-3-methylimidazolium tetrafluoroborate] ?
a: 1297

----------
conditions_used: 323.15 K; 3000 kPa; Liquid
property_name: mass density (kg/m3)
The figure you give is taken to be in kg/m3; do not add the unit.

1. CCCCCCCCn1cc[n+](C)c1.O=S(=O)([N-]S(=O)(=O)C(F)(F)F)C(F)(F)F :: 1298
2. CCn1cc[n+](C)c1.F[B-](F)(F)F [1-ethyl-3-methylimidazolium tetrafluoroborate] :: 1281
3. CCCCCCCn1cc[n+](C)c1.O=S(=O)([N-]S(=O)(=O)C(F)(F)F)C(F)(F)F :: 1325

With those in mind, consider the next molecule.
q: # input molecule: `CCn1cc[n+](C)c1.O=S(=O)([N-]S(=O)(=O)C(F)(F)F)C(F)(F)F` ; wanted: its mass density
a: 1495

----------
conditions_used: 333.15 K; 5000 kPa; Liquid
property_name: mass density (kg/m3)
Supply the numeric figure in kg/m3, leaving out any unit text.

1) CCCCCCCn1cc[n+](C)c1.O=S(=O)([N-]S(=O)(=O)C(F)(F)F)C(F)(F)F :: 1317
2) CCn1cc[n+](C)c1.O=S(=O)([N-]S(=O)(=O)C(F)(F)F)C(F)(F)F :: 1486
3) CCn1cc[n+](C)c1.F[B-](F)(F)F [1-ethyl-3-methylimidazolium tetrafluoroborate] :: 1274

Turning now to a further compound:
q: For `CCCCCCCCn1cc[n+](C)c1.O=S(=O)([N-]S(=O)(=O)C(F)(F)F)C(F)(F)F` , what is its reported mass density?
a: 1290

----------
conditions_used: 313.15 K; 1000 kPa; Liquid
property_name: mass density (kg/m3)
Numbers only; they are read as kg/m3.

Use these answered entries as a reference point.
1. CCn1cc[n+](C)c1.O=S(=O)([N-]S(=O)(=O)C(F)(F)F)C(F)(F)F :: 1504
2. CCCCCCCn1cc[n+](C)c1.O=S(=O)([N-]S(=O)(=O)C(F)(F)F)C(F)(F)F :: 1333
3. CCCCCCCCn1cc[n+](C)c1.O=S(=O)([N-]S(=O)(=O)C(F)(F)F)C(F)(F)F :: 1306

Please examine the following record next.
q: # input compound: CCn1cc[n+](C)c1.F[B-](F)(F)F [1-ethyl-3-methylimidazolium tetrafluoroborate] ; wanted: its mass density
a: 1288

----------
Entries annotated with measured mass density
conditions_used: 393.15 K; 2000 kPa; Liquid
Use kg/m3 as the unit, but write only the number.

Answered cases to consult:
1. CCCCCCCCn1cc[n+](C)c1.O=S(=O)([N-]S(=O)(=O)C(F)(F)F)C(F)(F)F :: 1238
2. CCn1cc[n+](C)c1.O=S(=O)([N-]S(=O)(=O)C(F)(F)F)C(F)(F)F :: 1425
3. CCn1cc[n+](C)c1.F[B-](F)(F)F [1-ethyl-3-methylimidazolium tetrafluoroborate] :: 1230

Below: the item to evaluate.
q: Returns the measured mass density for the input compound. Input: `CCCCCCCn1cc[n+](C)c1.O=S(=O)([N-]S(=O)(=O)C(F)(F)F)C(F)(F)F`
a: 1263

----------
conditions_used: 333.15 K; 4000 kPa; Liquid
property_name: mass density (kg/m3)
Return type: number; implicit unit kg/m3.

1) CCn1cc[n+](C)c1.O=S(=O)([N-]S(=O)(=O)C(F)(F)F)C(F)(F)F :: 1485
2) CCCCCCCn1cc[n+](C)c1.O=S(=O)([N-]S(=O)(=O)C(F)(F)F)C(F)(F)F :: 1317
3) CCn1cc[n+](C)c1.F[B-](F)(F)F [1-ethyl-3-methylimidazolium tetrafluoroborate] :: 1274

// next item, mass density requested
q: Entry `CCCCCCCCn1cc[n+](C)c1.O=S(=O)([N-]S(=O)(=O)C(F)(F)F)C(F)(F)F` has what mass density?
a: 1289
